Biological target: GABA-A receptor; anion channel (Rattus norvegicus) (UniProt O09028+P15431+P18506+P18508+P19969+P20236+P23574+P23576+P28471+P28473+P30191+P62813+P63079+P63138+Q91ZM7+Q9ES14)
Test: Shift in [35S]TBPS binding to GABA-A Benzodiazepine receptor of rat brain membrane
Consider the following compounds and their measured Shift readings.
No unit in the answer, please; the number alone is enough.

{"Compound": "CC(C)(C)OC(=O)c1ncn2c1CN(C(=O)N1CC3CCC(C1)N3)c1cc(Cl)ccc1-2", "Shift": 0.2}
{"Compound": "CC1CN(C(=O)N2Cc3c(C(=O)OC(C)(C)C)ncn3-c3ccc(Cl)cc32)CC(C)N1 (stereo not drawn)", "Shift": 0.41}
{"Compound": "C[C@@H]1CN(C(=O)N2Cc3c(C(=O)OC(C)(C)C)ncn3-c3ccc(F)cc32)C[C@H](C)N1", "Shift": -0.14}
{"Compound": "C[C@@H]1CN(C(=O)N2Cc3c(C(=O)OC(C)(C)C)ncn3-c3ccc(Cl)cc32)C[C@H](C)N1C", "Shift": -0.06}
{"Compound": "C[C@H]1CN(C(=O)N2Cc3c(C(=O)OC(C)(C)C)ncn3-c3ccc(C(F)(F)F)cc32)C[C@H](C)N1", "Shift": 0.41}

Would you mind telling me what Shift value was observed for `CC(C)(C)OC(=O)c1ncn2c1CN(C(=O)N1CCN(CC(F)(F)F)CC1)c1cc(Cl)ccc1-2` ?
0.81

Shift lookup needed for `C[C@@H]1CN(C(=O)N2Cc3c(C(=O)OC(C)(C)C)ncn3-c3ccc(C(F)(F)F)cc32)C[C@H](C)N1C` , thanks.
0.26

Need Shift of `C[C@@H]1CN(C(=O)N2c3cc(Cl)ccc3-n3cnc(C(=O)OC(C)(C)C)c3C2(C)C)C[C@H](C)N1C` , thanks.
1.43
